Recorded measurements of plant injury rating, Rape, one per entry
- Test system: Rape
- ASSAY_OVERVIEW: plant injury after spraying emerged plants (Table D)
- Type: in vivo
- Set-up: scale not given here
- TEST_CONTEXT: 0.2803 kg/ha
Field format: numeric only.

Illustrative cases are given below, each with its answer.
COC(=O)c1c(OC)nc(C(F)(F)F)c(C(=O)n2ccc(F)n2)c1C1CCC1	3
COC(=O)c1c(OC)nc(C(F)(F)F)c(C2SCCS2)c1CC(C)C	2
COC(=O)c1c(OC)nc(C(F)(F)F)c(C(=O)SC)c1C1CCC1	3
COC(=O)c1c(OC)nc(C(F)(F)F)c(C(=O)n2cccn2)c1CC1CC1	2
COC(=O)c1c(OC)nc(C(F)(F)F)c(C(=O)Cl)c1CC1CC1	0
COC(=O)c1c(OC)nc(C(F)(F)F)c(C(=O)NCCCBr)c1CC(C)C	0
COC(=O)c1c(OC)nc(C(F)(F)F)c(-c2nnc(C)o2)c1CC(C)C	0

Next compound, plant injury rating, Rape to be filled in.
Summary line: COC(=O)c1c(OC)nc(C(F)(F)F)c(C2=NCCCS2)c1CC(C)C , Rape, reported plant injury rating, Rape = 0

---

- Test system: Sobe
- ASSAY_OVERVIEW: plant injury after spraying emerged plants (Table D)
- Assay type: in vivo
- Parameters: scale not given here
- TEST_CONTEXT: 0.2803 kg/ha
QUANTITY_KIND: plant injury rating, Sobe
Field format: numeric only.

COC(=O)c1c(OC)nc(C(F)(F)F)c(C(=O)NCCCBr)c1CC(C)C	0
COC(=O)c1c(O)nc(C(F)(F)F)c(C(=O)OC)c1CC(C)C	2
COC(=O)c1c(OC)nc(C(F)(F)F)c(C2SCCS2)c1CC(C)C	1

Summary line: COC(=O)c1c(OC)nc(C(F)(F)F)c(C(=O)SC)c1C1CCC1 , Sobe, reported plant injury rating, Sobe = 0

Summary line: COC(=O)c1c(OC)nc(C(F)(F)F)c(C(=O)Cl)c1CC1CC1 , Sobe, reported plant injury rating, Sobe = 0

Summary line: COC(=O)c1c(OC)nc(C(F)(F)F)c(-c2nnc(C)o2)c1CC(C)C , Sobe, reported plant injury rating, Sobe = 0

Summary line: COC(=O)c1c(OC)nc(C(F)(F)F)c(C(=O)n2cccn2)c1CC1CC1 , Sobe, reported plant injury rating, Sobe = 1

Summary line: COC(=O)c1c(OC)nc(C(F)(F)F)c(C2=NCCS2)c1CC(C)C , Sobe, reported plant injury rating, Sobe = 1

Summary line: COC(=O)c1c(OC)nc(C(F)(F)F)c(C2=NCCCS2)c1CC(C)C , Sobe, reported plant injury rating, Sobe = 0

---

- System: Bygr
- ASSAY_OVERVIEW: plant injury after spraying emerged plants (Table D)
- Assay type: in vivo
- Set-up: scale not given here
- TEST_CONTEXT: 5.6050 kg/ha
Recorded measurements of plant injury rating, Bygr, one per entry

Illustrative cases are given below, each with its answer.
COC(=O)c1c(OC)nc(C(F)(F)F)c(C(=O)n2ccc(F)n2)c1C1CCC1	0
COC(=O)c1c(OC)nc(C(F)(F)F)c(N=CSC)c1CC(C)C	2
COC(=O)c1c(OC)nc(C(F)(F)F)c(C2=NCCCS2)c1CC(C)C	0

// field: plant injury rating, Bygr; key: COC(=O)c1c(OC)nc(C(F)(F)F)c(-c2nnc(C)o2)c1CC(C)C ; value = 0

// field: plant injury rating, Bygr; key: COC(=O)c1c(OC)nc(C(F)(F)F)c(C2SCCS2)c1CC(C)C ; value = 2

---

Recorded measurements of plant injury rating, Hese, one per entry
- Tested on: Hese
- ASSAY_OVERVIEW: plant injury after spraying emerged plants (Table D)
- Assay type: in vivo
- Parameters: scale not given here
- TEST_CONTEXT: 5.6050 kg/ha
Field format: numeric only.

COC(=O)c1c(OC)nc(C(F)(F)F)c(C(=O)NCCCBr)c1CC(C)C	0

// field: plant injury rating, Hese; key: COC(=O)c1c(OC)nc(C(F)(F)F)c(C2SCCS2)c1CC(C)C ; value = 3

// field: plant injury rating, Hese; key: COC(=O)c1c(OC)nc(C(F)(F)F)c(C(=O)n2cccn2)c1CC1CC1 ; value = 2

// field: plant injury rating, Hese; key: COC(=O)c1c(OC)nc(C(F)(F)F)c(C(=O)SC)c1C1CCC1 ; value = 3

---

- Test system: Quackgrass
- ASSAY_OVERVIEW: Pre-emergent herbicidal activity (Table A)
- Type: in vivo
- TEST_CONTEXT: pre-emergence, Rhqg, 11.2 kg/ha, 10-14 days, read-out: herbicidal rating (% inhibition)
Recorded measurements of inhibition at 11200 g/ha, one per entry

Illustrative cases are given below, each with its answer.
COC(=O)c1c(OC)nc(C(F)(F)F)c(N=CSC)c1CC(C)C	75 to 100%
COc1nc(C(F)(F)F)c(C(=O)SC)c(C2CCC2)c1C(=O)SC	50 to 74%
COC(=O)c1c(OC)nc(C(F)(F)F)c(C(=O)OC)c1C1CC1	75 to 100%
COC(=O)c1c(OC)nc(C(F)(F)F)c(C2=NC(C)(C)CS2)c1CC(C)C	75 to 100%
COC(=O)c1c(OC)nc(C(F)(F)F)c(C(=O)N2CCCC2)c1CC(C)C	75 to 100%
COC(=O)c1c(C(F)(F)F)nc(OC)c(C#N)c1CC(C)C	75 to 100%
COC(=O)c1c(OC)nc(C(F)(F)F)c(C2=NCCO2)c1CC(C)C	75 to 100%
COC(=O)c1c(OC)nc(C(F)(F)F)c(C(=O)OC)c1C	75 to 100%
COC(=O)c1c(OC)nc(C(F)(F)F)c(C(=O)N2CC2C)c1CC(C)C (stereo not drawn)	0 to 24%
CCSC=Nc1c(C(F)(F)F)nc(OC)c(C(=O)OC)c1CC(C)C	50 to 74%

// field: inhibition at 11200 g/ha; key: COC(=O)c1c(OC)nc(C(F)(F)F)c(C(=O)OC)c1CC(=O)O ; value = 0 to 24%

---

- Tested on: Cobu
- ASSAY_OVERVIEW: plant injury after spraying emerged plants (Table D)
- Type: in vivo
- Set-up: scale not given here
- TEST_CONTEXT: 0.2803 kg/ha
QUANTITY_KIND: plant injury rating, Cobu
Field format: numeric only.

COC(=O)c1c(OC)nc(C(F)(F)F)c(C(=O)SC)c1C1CCC1	0
COC(=O)c1c(OC)nc(C(F)(F)F)c(C2SCCS2)c1CC(C)C	0
COC(=O)c1c(O)nc(C(F)(F)F)c(C(=O)OC)c1CC(C)C	0
COC(=O)c1c(OC)nc(C(F)(F)F)c(C2=NCCCS2)c1CC(C)C	1

Summary line: COC(=O)c1c(OC)nc(C(F)(F)F)c(C2=NCCS2)c1CC(C)C , Cobu, reported plant injury rating, Cobu = 1

Summary line: COC(=O)c1c(OC)nc(C(F)(F)F)c(C(=O)n2ccc(F)n2)c1C1CCC1 , Cobu, reported plant injury rating, Cobu = 1

Summary line: COC(=O)c1c(OC)nc(C(F)(F)F)c(C(=O)Cl)c1CC1CC1 , Cobu, reported plant injury rating, Cobu = 0

Summary line: COC(=O)c1c(OC)nc(C(F)(F)F)c(-c2nnc(C)o2)c1CC(C)C , Cobu, reported plant injury rating, Cobu = 0

---

- Tested on: Wild Buckwheat
- ASSAY_OVERVIEW: Pre-emergent herbicidal activity (Table A)
- Assay type: in vivo
- TEST_CONTEXT: Fallopia convolvulus, pre-emergence, Wibw, 11.2 kg/ha, 10-14 days, read-out: herbicidal rating (% inhibition)
QUANTITY_KIND: inhibition at 11200 g/ha

Illustrative cases are given below, each with its answer.
COC(=O)c1c(OC)nc(C(F)(F)F)c(C=NCCO)c1CC(C)C [Compound 128]	50 to 74%
COC(=O)c1c(OC)nc(C(F)(F)F)c(C(=O)n2cc(N)cn2)c1CC(C)C [Compound 108]	75 to 100%
COC(=O)c1c(OC)nc(C(F)(F)F)c(CO)c1CC1CC1 [Compound 117]	50 to 74%

Next compound, inhibition at 11200 g/ha to be filled in.
// field: inhibition at 11200 g/ha; key: COC(=O)c1c(OC)nc(C(F)(F)F)c(C(=O)SC)c1CC1CC1 [Compound 119] ; value = 75 to 100%

---

Recorded measurements of inhibition at 11200 g/ha, one per entry
- Tested on: Common Lambsquarters
- ASSAY_OVERVIEW: Pre-emergent herbicidal activity (Table A)
- Assay type: in vivo
- TEST_CONTEXT: Chenopodium album, pre-emergence, Colq, 11.2 kg/ha, 10-14 days, read-out: herbicidal rating (% inhibition)

Illustrative cases are given below, each with its answer.
COC(=O)c1c(OC)nc(C(F)(F)F)c(C(=O)OC)c1CBr [Compound 87]	50 to 74%
COC(=O)c1c(C(F)(F)F)nc(OC)c(N=CN(C)C)c1CC(C)C [Compound 57]	75 to 100%
COC(=O)c1c(OC)nc(C(F)(F)F)c(C(=O)OCCF)c1CC(C)C [Compound 81]	75 to 100%
CCOC(=O)C1=C(C(F)(F)F)NC(=O)C(C(N)=O)C1CC(C)C (centres unmarked) [Compound 35]	0 to 24%
CCCCOC(=O)c1c(C(F)(F)F)nc(OC)c(C(=O)OC)c1CC(C)C [Compound 16]	75 to 100%
COC(=O)c1c(OC)nc(C(F)(F)F)c(C2=NCC(C)S2)c1CC(C)C (centres unmarked) [Compound 64]	75 to 100%

// field: inhibition at 11200 g/ha; key: CCOc1nc(C(F)(F)F)c(C(=O)n2cccn2)c(CC(C)C)c1C(=O)OC [Compound 49] ; value = 75 to 100%

// field: inhibition at 11200 g/ha; key: COC(=O)c1c(OC)nc(C(F)(F)F)c(C2=NC(C)CS2)c1CC(C)C (centres unmarked) [Compound 74] ; value = 75 to 100%

// field: inhibition at 11200 g/ha; key: CCOc1nc(C(F)(F)F)c(C(=O)SC)c(CC(C)C)c1C(=O)SC [Compound 19] ; value = 75 to 100%

// field: inhibition at 11200 g/ha; key: COC(=O)c1c(OC)nc(C(F)(F)F)c(C(=O)n2cccn2)c1CC(C)C [Compound 42] ; value = 75 to 100%

// field: inhibition at 11200 g/ha; key: COC(=O)c1c(OC)nc(C(F)(F)F)c(C(=O)N2CCC2)c1CC(C)C [Compound 68] ; value = 75 to 100%
